# system.under.test: Gal(b1-4)GlcNAc(b1-3)[GlcNAc(b1-6)]Gal(b1-4)GlcNAc
# measurement.protocol: glycan array binding signal (z-score within array); higher = stronger binding
# test.conditions: glycan notation: IUPAC condensed, linker removed
The full list was thinned out, with the strongest signals kept by preference.
measured.property: glycan array binding signal (z-score)
One number for each entry.

# per-item lookup of glycan array binding signal (z-score); items listed below
1. RfpB (Mycobacterium tuberculosum), O05594 (protein) MAAGLVTASMSLSTAVAHAGPSPNWDAVAQCESGGNWAANTGNGKYGGLQFKPATWAAFGGVGNPAAASREQQIAVANRVLAEQGLDAWPTCGAASGLPIALWSKPAQGIKHAGPSPNWDAVAQCESGGNWAANTGNGKYGGLQFKPATWAAFGGVGNPAAASREQQIAVANRVLAEQGLDAWPTCGA
2. PfulAvr4 2 (Pseudocercospora fuligena) (protein) HHHHHHDYKDDDDKAKPIKPFACPPKDFTTTKCQGPVDCLYANPLSCLGYIQCVCDDDACSTATPYAKSCPTGLAWVEKLKRCDGIKKSACPKKMYEGS
3. SpnanA (Streptococcus pneumoniae), P62575 (protein) MVIEKEDVETNASNGQRVDLSSELDKLKKLENATVHMEFKPDAKAPAFYNLFSVSSATKKDEYFTMAVYNNTATLEGRGSDGKQFYNNYNDAPLKVKPGQWNSVTFTVEKPTAELPKGRVRLYVNGVLSRTSLRSGNFIKDMPDVTHVQIGATKRANNTVWGSNLQIRNLTVYNRALTPEEVQKRS

# output
2.74
5.97
-0.29
